# Growth inhibition rate (%) Corn listing for each entry below
System: corn (Zea mays L.)
Test Name: Test Example 1: foliar treatment, growth inhibition rate on 14th day
Type: in vivo
Condition Parameters: active ingredient amount 31 g/ha, 14th day after application
Quick note: give the figure in %, leave out the unit.

Reference set (5 entries):
molecule=Cc1ccc(Oc2ncc(C(F)(F)F)cc2Cl)c(C)c1-c1c(O)c(C)nn(C)c1=O measured_parameter="Growth inhibition rate (%) Corn" unit_text=% reported_result=88
molecule="Cc1ccc(Oc2cnc3cc(Cl)ccc3n2)cc1-c1c(O)c(C)nn(C)c1=O [Compound 3-1]" measured_parameter="Growth inhibition rate (%) Corn" unit_text=% reported_result=10
molecule=CC(=O)Oc1c(C)nn(C)c(=O)c1-c1cc(Oc2ncc(Cl)cn2)ccc1C measured_parameter="Growth inhibition rate (%) Corn" unit_text=% reported_result=0
molecule=CCn1ncc(O)c(-c2cc(Oc3nc4ccc(Cl)cc4o3)ccc2C)c1=O measured_parameter="Growth inhibition rate (%) Corn" unit_text=% reported_result=90
molecule=CCc1ccc(Oc2ncc(C(F)(F)F)cc2Cl)cc1-c1c(O)cnn(CC)c1=O measured_parameter="Growth inhibition rate (%) Corn" unit_text=% reported_result=99

Problem: Tell me its Growth inhibition rate (%) Corn given `CCn1ncc(OC(C)=O)c(-c2cc(Oc3nc4ccc(Cl)cc4o3)ccc2C)c1=O` as the entry.
Solution: 98

Problem: Tell me its Growth inhibition rate (%) Corn given `CC(=O)Oc1cnn(CC2CC2)c(=O)c1-c1cccc(Oc2ncc(C(F)(F)F)cc2Cl)c1C` as the entry.
Solution: 99

Problem: Tell me its Growth inhibition rate (%) Corn given `CC(=O)Oc1c(C)nn(C)c(=O)c1-c1cc(Oc2nc3ccccc3o2)ccc1C` as the entry.
Solution: 15

Problem: Tell me its Growth inhibition rate (%) Corn given `Cc1ccc(Oc2nc3ccc(Br)cc3o2)cc1-c1c(O)cnn(C)c1=O` as the entry.
Solution: 70

Problem: Tell me its Growth inhibition rate (%) Corn given `CCn1nc(C)c(O)c(-c2cc(Oc3ncc(C(F)(F)F)cc3Cl)ccc2C)c1=O` as the entry.
Solution: 98

Problem: Tell me its Growth inhibition rate (%) Corn given `CCCCC(=O)Oc1c(C)nn(C)c(=O)c1-c1cc(Oc2ncc(C(F)(F)F)cc2Cl)ccc1C` as the entry.
Solution: 98

Data provenance is patent US10870638B2.
